experiment: Permeability of compound by PAMPA-BBB assay

SMILES	Papp / ×10⁻⁶ cm/s
Cn1c(=O)c2c(ncn2C)n(C)c1=O	3.2
Clc1cccc(Cl)c1N=C1NCCN1	4
COc1ccc2c(c1)[nH]c1c(C)nccc12	44.6
COC(=O)c1ccc2c(c1)[nH]c1c(NC(=O)C3CC3)nccc12	16.5
O=Cc1ccc2c(c1)[nH]c1c(NC(=O)C3CC3)nccc12	14.3
COc1ccc2c(c1)[nH]c1c(NC(=O)C3CC3)nccc12	15.6
O=C(Nc1nccc2c1[nH]c1cc(F)ccc12)C1CC1	33.3
NC(=O)c1ccc2c(c1)[nH]c1c(NC(=O)C3CC3)nccc12	0.7
O=C(Nc1nccc2c1[nH]c1cc(Cl)ccc12)C1CC1	21.5

====

target: Glycogen synthase kinase-3 beta (Homo sapiens); test: biochemical
Sequence (P49841 whole entry): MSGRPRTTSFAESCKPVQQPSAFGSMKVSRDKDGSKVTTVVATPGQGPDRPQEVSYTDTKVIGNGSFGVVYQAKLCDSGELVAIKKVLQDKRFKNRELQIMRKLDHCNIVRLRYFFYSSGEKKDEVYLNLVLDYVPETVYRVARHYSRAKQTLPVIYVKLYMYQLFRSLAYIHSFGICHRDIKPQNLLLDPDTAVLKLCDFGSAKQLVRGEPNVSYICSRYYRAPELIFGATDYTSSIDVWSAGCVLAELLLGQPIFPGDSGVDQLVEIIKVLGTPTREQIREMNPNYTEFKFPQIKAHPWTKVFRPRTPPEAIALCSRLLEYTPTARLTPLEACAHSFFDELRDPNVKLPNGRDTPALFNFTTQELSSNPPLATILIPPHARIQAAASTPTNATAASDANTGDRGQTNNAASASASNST

SMILES	IC50
O=C(Nc1nccc2c1[nH]c1cc(Cl)ccc12)C1CC1	5.15 µM
O=C(Nc1cc2c(cn1)[nH]c1cc(Cl)ccc12)C1CC1	> 10 µM
NC(=O)c1ccc2c(c1)[nH]c1cnc(NC(=O)C3CC3)cc12	> 10 µM
O=C(Nc1cc2c(cn1)[nH]c1cc(F)ccc12)C1CC1	> 10 µM
COC(=O)c1ccc2c(c1)[nH]c1cnc(NC(=O)C3CC3)cc12	> 10 µM
COc1ccc2c(c1)[nH]c1c(NC(=O)C3CC3)nccc12	0.144 µM
O=C(Nc1nccc2c1[nH]c1cc(OC(F)(F)F)ccc12)C1CC1	7.62 µM
COc1ccc(-c2ccc3c(c2)[nH]c2cnc(NC(=O)C4CC4)cc23)cc1	> 10 µM
COc1ccc(-c2ccc3c(c2)[nH]c2c(NC(=O)C4CC4)nccc23)cc1	> 10 µM
O=Cc1ccc2c(c1)[nH]c1cnc(NC(=O)C3CC3)cc12	> 10 µM
COc1ccc2c(c1)[nH]c1cnc(C)cc12	> 10 µM
O=C(Nc1cc2c(cn1)[nH]c1cc(-c3cccnc3)ccc12)C1CC1	> 10 µM
O=C(Nc1nccc2c1[nH]c1cc(-c3ccccc3)ccc12)C1CC1	6.59 µM
COc1ccc2c(c1)[nH]c1cnc(NC(=O)C3CC3)cc12	8.1 µM
O=C(Nc1nccc2c1[nH]c1cc(-c3cccnc3)ccc12)C1CC1	> 10 µM
O=C(Nc1nccc2c1[nH]c1cc(F)ccc12)C1CC1	4.8 µM
O=Cc1ccc2c(c1)[nH]c1c(NC(=O)C3CC3)nccc12	0.4 µM
COC(=O)c1ccc2c(c1)[nH]c1c(NC(=O)C3CC3)nccc12	0.071 µM
O=C(Nc1cc2c(cn1)[nH]c1cc(C(F)(F)F)ccc12)C1CC1	> 10 µM
N#Cc1ccc2c(c1)[nH]c1cnc(NC(=O)C3CC3)cc12	> 10 µM
N#Cc1ccc2c(c1)[nH]c1c(NC(=O)C3CC3)nccc12	> 10 µM
O=C(Nc1cc2c(cn1)[nH]c1cc(OC(F)(F)F)ccc12)C1CC1	> 10 µM
NC(=O)c1ccc2c(c1)[nH]c1c(NC(=O)C3CC3)nccc12	0.2 µM
O=C(Nc1nccc2c1[nH]c1cc(C(F)(F)F)ccc12)C1CC1	> 10 µM

====

target: Dual specificity tyrosine-phosphorylation-regulated kinase 1A (Rattus norvegicus, UniProt Q63470); test: Inhibition of rat recombinant DYRK1A expressed in Escherichia coli using RRRFRPASPLRGPPK as substrate by ADP-Glo kinase assay
pIC50: −log10 of the molar value.

SMILES	pIC50
CN[C@@H]1C[C@H]2O[C@@](C)([C@@H]1OC)n1c3ccccc3c3c4c(c5c6ccccc6n2c5c31)C(=O)NC4	7.92
